# studySystem: ENaC (Epithelial Sodium Channel) (Mus musculus, UniProt Q61180+Q9WU38+Q9WU39)
# Construct: Mouse kidney M−1 cells were cultivated in DMEM; endogenous in cells; host or cells: Mouse kidney M-1 cells, cultivated with dexamethasone on transwell filters
# Sequence (Q61180 1-699): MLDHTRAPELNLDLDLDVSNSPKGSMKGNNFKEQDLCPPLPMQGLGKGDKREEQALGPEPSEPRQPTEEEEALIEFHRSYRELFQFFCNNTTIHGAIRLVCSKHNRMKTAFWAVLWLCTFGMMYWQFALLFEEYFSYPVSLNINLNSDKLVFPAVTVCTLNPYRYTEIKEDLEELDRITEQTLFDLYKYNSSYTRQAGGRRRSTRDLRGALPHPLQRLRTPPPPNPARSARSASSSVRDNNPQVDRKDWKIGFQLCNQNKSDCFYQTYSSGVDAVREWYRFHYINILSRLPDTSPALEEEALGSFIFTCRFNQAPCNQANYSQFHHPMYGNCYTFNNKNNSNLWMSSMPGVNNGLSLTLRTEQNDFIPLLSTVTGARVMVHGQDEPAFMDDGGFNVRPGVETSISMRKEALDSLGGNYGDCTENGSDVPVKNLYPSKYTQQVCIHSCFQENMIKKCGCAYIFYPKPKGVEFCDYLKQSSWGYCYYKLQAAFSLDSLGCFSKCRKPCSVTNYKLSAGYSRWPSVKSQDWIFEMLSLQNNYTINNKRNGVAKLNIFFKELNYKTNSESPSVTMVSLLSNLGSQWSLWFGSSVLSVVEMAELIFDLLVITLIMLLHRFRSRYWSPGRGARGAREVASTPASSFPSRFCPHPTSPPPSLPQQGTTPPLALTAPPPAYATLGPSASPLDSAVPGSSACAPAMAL
# Sequence (Q9WU38 1-638): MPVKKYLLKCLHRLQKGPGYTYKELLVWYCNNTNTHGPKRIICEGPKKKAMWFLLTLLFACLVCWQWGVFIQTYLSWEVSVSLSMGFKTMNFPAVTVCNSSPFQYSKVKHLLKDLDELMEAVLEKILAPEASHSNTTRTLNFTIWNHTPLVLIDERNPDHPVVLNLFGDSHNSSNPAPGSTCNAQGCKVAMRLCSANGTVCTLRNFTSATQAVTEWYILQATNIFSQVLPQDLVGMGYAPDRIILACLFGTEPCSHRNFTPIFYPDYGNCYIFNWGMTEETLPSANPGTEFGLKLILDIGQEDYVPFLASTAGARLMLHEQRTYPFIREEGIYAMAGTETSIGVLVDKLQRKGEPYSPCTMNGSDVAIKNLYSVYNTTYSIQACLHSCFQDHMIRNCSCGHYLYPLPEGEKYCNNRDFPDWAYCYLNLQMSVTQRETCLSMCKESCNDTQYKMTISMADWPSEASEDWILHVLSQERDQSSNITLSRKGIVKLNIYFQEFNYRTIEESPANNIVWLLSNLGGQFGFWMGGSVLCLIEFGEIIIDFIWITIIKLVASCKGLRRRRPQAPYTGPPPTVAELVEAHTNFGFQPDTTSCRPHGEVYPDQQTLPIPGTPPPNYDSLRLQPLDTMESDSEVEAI
# Sequence (Q9WU39 1-655): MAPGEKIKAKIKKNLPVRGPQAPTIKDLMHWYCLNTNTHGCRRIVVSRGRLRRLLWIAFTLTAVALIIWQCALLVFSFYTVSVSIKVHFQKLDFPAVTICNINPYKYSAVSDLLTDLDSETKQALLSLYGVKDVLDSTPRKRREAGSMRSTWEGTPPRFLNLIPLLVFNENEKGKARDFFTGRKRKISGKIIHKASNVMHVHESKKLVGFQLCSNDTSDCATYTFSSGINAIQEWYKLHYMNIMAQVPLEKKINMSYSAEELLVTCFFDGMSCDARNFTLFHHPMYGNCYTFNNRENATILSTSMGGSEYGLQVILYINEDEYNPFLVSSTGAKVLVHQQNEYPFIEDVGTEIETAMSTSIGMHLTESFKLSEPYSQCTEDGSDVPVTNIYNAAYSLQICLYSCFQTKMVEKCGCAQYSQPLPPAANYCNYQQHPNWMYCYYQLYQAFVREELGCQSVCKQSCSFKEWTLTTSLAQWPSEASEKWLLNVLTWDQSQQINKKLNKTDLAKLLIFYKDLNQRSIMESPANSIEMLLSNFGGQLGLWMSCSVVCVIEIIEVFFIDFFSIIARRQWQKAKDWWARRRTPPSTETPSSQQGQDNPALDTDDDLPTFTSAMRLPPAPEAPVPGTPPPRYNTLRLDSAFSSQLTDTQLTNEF
# protocolText: Ussing Chamber assay (short circuit current, amiloride sensitive I_SC)
# Format: cell-based
# assayConditions: Ussing chamber, mouse kidney M-1 cells, short circuit current, compound added to the apical solution; read-out: IC50
parameter: IC50 (nM)
Numbers only, in nM.

Below is a list of compounds. For each, state its recorded IC50.
1. Nc1nc(N)c(C(=O)N[C@H]2CCC[N+](CCCc3ccc(OCC(=O)N4CCS(=O)(=O)CC4)cc3)(CCCc3ccc(OCC(=O)N4CCS(=O)(=O)CC4)cc3)C2)nc1Cl [Example 6.24]
2. Nc1nc(N)c(C(=O)N[C@@H]2CCC[N+](CCCc3c(F)cccc3F)(CCCc3c(F)cccc3F)C2)nc1Cl [Example 10.3]

Response line:
[47, 47]
